Source listed as patent US20150368338A1.

Entries and their measured Kd follow.
TARGET OR SYSTEM: T1, IFN-αC (human, UniProt P01566 24-189)
T1 construct: Recombinant, HEK293; also called IFN-α10
METHOD SUMMARY: ProteOn SPR, cell supernatant;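 also: each binding measurement used just a single antigen concentration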
A number alone suffices; assume nM.

In the examples that follow, each entry is paired with its recorded Kd.
>>> recorded_value("IFWM3406 (antibody, IgG1, V domains shown, mAb; IgG1/kappa said of the parent and of selected mAbs; also called IFWB3141) VH: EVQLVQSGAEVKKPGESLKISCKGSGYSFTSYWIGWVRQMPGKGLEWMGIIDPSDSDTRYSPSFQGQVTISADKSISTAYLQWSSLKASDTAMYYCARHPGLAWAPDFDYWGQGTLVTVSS VL: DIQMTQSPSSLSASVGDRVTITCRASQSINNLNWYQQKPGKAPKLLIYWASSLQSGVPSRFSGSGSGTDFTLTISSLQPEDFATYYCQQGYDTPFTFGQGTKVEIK")
0.037
>>> recorded_value("IFWM3380 (antibody, IgG1, V domains shown, mAb; IgG1/kappa said of the parent and of selected mAbs; also called IFWB3115) VH: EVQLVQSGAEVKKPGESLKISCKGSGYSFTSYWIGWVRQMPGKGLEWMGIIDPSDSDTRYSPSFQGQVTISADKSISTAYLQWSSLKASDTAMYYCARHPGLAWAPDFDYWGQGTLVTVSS VL: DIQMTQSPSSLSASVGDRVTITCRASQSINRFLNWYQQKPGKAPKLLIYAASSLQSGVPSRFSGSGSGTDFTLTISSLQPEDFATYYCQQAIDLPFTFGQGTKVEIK")
0.046

What does the data say about its Kd? Entry: IFWM3382 (antibody, IgG1, V domains shown, mAb; IgG1/kappa said of the parent and of selected mAbs; also called IFWB3117) VH: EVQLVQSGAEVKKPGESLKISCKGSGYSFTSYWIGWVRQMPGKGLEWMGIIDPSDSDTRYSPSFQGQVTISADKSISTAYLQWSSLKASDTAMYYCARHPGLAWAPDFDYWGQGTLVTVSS VL: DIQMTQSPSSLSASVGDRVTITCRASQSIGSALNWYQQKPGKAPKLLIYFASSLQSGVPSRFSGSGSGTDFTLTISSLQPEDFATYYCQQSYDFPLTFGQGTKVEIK 0.024
